experiment.summary: clinical
experimental.context: male, human, in vivo, po, 175 mg, AUC0-t
quantity.name: AUC0-t (ng·h/mL)
Please state the figure in ng·h/mL; there is no need to write the unit.

What AUC0-t value was documented for this compound, COc1cc2nccc(Oc3ccc(NC(=O)C4(C(=O)Nc5ccc(F)cc5)CC4)cc3)c2cc1OC ?
72900

###

experiment.summary: clinical
experimental.context: male, human, in vivo, po, 175 mg, t1/2
quantity.name: half-life (h)
Please state the figure in h; there is no need to write the unit.

What half-life value was documented for this compound, COc1cc2nccc(Oc3ccc(NC(=O)C4(C(=O)Nc5ccc(F)cc5)CC4)cc3)c2cc1OC ?
69

Cited source for all entries: patent US11504362B2
